Recorded melting point values for a group of compounds are listed next.

{"Compound": "CCCCOCCOc1ccc(-c2ccc3c(c2)C=C(C(=O)Nc2ccc(C(O)c4ccccn4)c(C)c2)CCN3C(=O)C(F)(F)F)cc1 (centres undefined)", "Measurement": "122 to 125 °C"}
{"Compound": "Cc1cc(=O)[nH]c2cc(OCCCN3CCN(C(c4ccccc4)c4ccccc4)CC3)ccc12", "Measurement": "208 to 210 °C"}
{"Compound": "CCc1nc2cc(C(=O)NC)c(Cl)cc2n1-c1ccc(CCOC(=O)NS(=O)(=O)c2ccc(C)cc2)cc1", "Measurement": "201 to 204 °C"}

Read the entry CCOC(=O)/C=C(C)/C=C/C=C(\C)C1=Cc2cc(C34CC5CC(CC(C5)C3)C4)ccc2OC1 and write its reported melting point. 178 to 179 °C

###

Recorded melting point values for a group of molecules are listed next.

Consider the reported melting point for these molecules:
{"Molecule": "Cc1ccc(-c2cc(C(=O)O)nn2Cc2ccc(F)cc2)cc1C", "Measurement": "141 °C"}
{"Molecule": "Cc1oc(-c2ccccc2)nc1CCC(O)c1ccc(CC2OC(=O)NC2=O)cc1 (stereo not given)", "Measurement": "154 to 155 °C"}
{"Molecule": "O=C(Nc1ccccc1)c1ccc(Nc2ccccc2)nc1", "Measurement": "264 to 266 °C"}
{"Molecule": "C=CCOc1cc(C)c(OC(C)=O)c(C)c1C", "Measurement": "40 to 41 °C"}
{"Molecule": "CON(C)C(=O)[C@H]1CCn2c(cc3ccccc32)C1", "Measurement": "78 to 80 °C"}

Read the entry CCOC(=O)C1=C(C)NC(C=O)=C(C(=O)OCC)C1c1cc([N+](=O)[O-])ccc1Cl (stereo not given) and write its reported melting point. 172 to 173 °C

Read the entry Cc1nc2ccc(N3CC4CNCC4C3)nn2c1-c1ccnc(CN)c1 (stereo not given) and write its reported melting point. 169 °C

###

Recorded melting point values for a group of molecules are listed next.

{"Molecule": "O=[N+]([O-])c1c[nH]nc1-c1ccc(Cl)cc1", "Measurement": "172 to 174 °C"}
{"Molecule": "CC1(CNC(=O)OC(C)(C)C)CN(c2cccc(Cl)n2)C1", "Measurement": "108 to 111 °C"}
{"Molecule": "COc1cccc(-c2ccc3cc(OC)ccc3c2Oc2ccc(O)cc2)c1", "Measurement": "125 to 126 °C"}

Read the entry Clc1cccc(-c2nc(Cl)c3ccccc3n2)c1 and write its reported melting point. 157 to 158 °C

Read the entry COc1cc(OC)cc(-n2c(-c3ccccc3)cc(=O)c(C)c2-c2ccccc2)c1 and write its reported melting point. 232 to 236 °C

Read the entry CC1(C)C(=O)Nc2ccc(-c3cccc(Cl)c3)cc21 and write its reported melting point. 188 to 189 °C

Read the entry Nc1nc(C#Cc2ccccc2)cc(-c2ccccc2)n1 and write its reported melting point. 136 to 138 °C

Read the entry O=C1NC(=O)C(Br)(Cc2ccccc2)C(=O)N1 and write its reported melting point. 164 to 166 °C

###

Recorded melting point values for a group of compounds are listed next.

Consider the reported melting point for these compounds:
{"Compound": "CCOC(=O)c1ccc(CCCOCCCCCCNCC(O)c2cc(Cl)c(N)c(Cl)c2)cc1 (stereo not given)", "Measurement": "66 to 68 °C"}
{"Compound": "CCP(=S)(CC)OC(=O)/C=N\\OCc1csc(N)n1", "Measurement": "87 to 88 °C"}
{"Compound": "CNC(=O)NCCN(c1ccc(Cl)cc1Cc1c(F)cccc1F)S(=O)(=O)c1ccc(OC)c(OC)c1", "Measurement": "106 °C"}

Could you now look at the following compound, please?
Read the entry CCOC(=O)c1cc(OC)ccc1CCc1cc2cc(C#N)ccc2o1 and write its reported melting point. 92 to 93 °C

###

Recorded Metric: melting point

{"Compound": "O=C(C=Cc1cc(F)cc(F)c1)c1cnc2sc3c(n12)CCCCC3", "melting point": "207 to 209 °C"}

Read the entry O=S1(=O)NCN(C2CCCCCCC2)c2cc(Cl)c(Cl)cc21 and write its reported melting point. 154 to 155 °C

Read the entry CCc1cc([N+](=O)[O-])cc([N+](=O)[O-])c1Cl and write its reported melting point. 41 to 44 °C

Read the entry O=[N+]([O-])c1cc(C(O)CCN2CC=C(c3ccc(Cl)cc3)CC2)ccc1F (stereo not given) and write its reported melting point. 154 to 156 °C

Read the entry COc1cc(C(C)C)c(OCC#N)cc1I and write its reported melting point. 67.5 to 68.8 °C

###

Recorded Metric: melting point

Consider the reported melting point for these molecules:
{"Molecule": "CC(C)(C)[S@@](=O)NC1(c2ccc3c(C(F)(F)F)c(O[C@H]4CC[C@H](C(C)(C)C)CC4)ccc3c2)COC1", "Recorded Metric": "melting point", "Measurement": "86.8 to 90 °C"}
{"Molecule": "CCCCCCCCNc1c(Nc2ccc(CC(C)NC[C@H](O)COc3cccc4[nH]c5ccccc5c34)cc2)c(=O)c1=O (some centres undefined)", "Recorded Metric": "melting point", "Measurement": "125 to 131 °C"}
{"Molecule": "CCN(CC)CC(=O)N1c2ccccc2NC(=O)c2c1c(C)cn2C", "Recorded Metric": "melting point", "Measurement": "174 to 175 °C"}

Read the entry Cc1c2c(cc3ccc(=O)oc13)C=CC(C)(C)O2 and write its reported melting point. 105 to 107 °C

Read the entry COc1cc2c(cc1OC)-c1cc(=O)n(C(C)C)c(=O)n1CC2 and write its reported melting point. 190 to 192 °C

Read the entry COc1cc2c(cc1C(F)(F)F)N(C(=O)Nc1cc(F)cc(I)c1)CC2 and write its reported melting point. 221 to 224 °C

###

Recorded Metric: melting point

{"Compound": "COc1ccc(N=Nc2ccc(O)c(C(=O)Nc3ccc4[nH]cnc4c3)c2)cc1", "melting point": "274 °C"}
{"Compound": "O=C(Nc1ccc(CN2CCCCC2)cc1)c1cccc(OCc2ccccc2)c1", "melting point": "137 to 138 °C"}
{"Compound": "C=C(C)c1ccc(C2COc3c(C)c(C)c(NC(=O)CC(C)(C)C)c(C)c32)cc1OC (stereo not given)", "melting point": "186 to 187 °C"}
{"Compound": "C=Cc1ccc(CSCCNC(=O)COCC(=O)O)cc1", "melting point": "44.5 to 46 °C"}
{"Compound": "Cc1[nH]c(=O)c(C#N)cc1-c1csc(N)n1", "melting point": "294 to 296 °C"}
{"Compound": "CS(=O)(=O)Nc1nc2nc(NC3CCOCC3)ncc2cc1Oc1ccc(F)cc1F", "melting point": "199 to 204 °C"}
{"Compound": "Clc1ccc(-c2nc3n(c2Br)CCCC3)c(Cl)c1", "melting point": "112 to 113 °C"}
{"Compound": "CCn1cc(C(=O)O)c(=O)c2cc(F)c(N3CCC(CN)CC3)nc21", "melting point": "203 to 206 °C"}
{"Compound": "CC(c1ccc(Cl)c(Cl)c1)n1[nH]c(N)cc1=O (stereo not given)", "melting point": "127 to 129 °C"}

Read the entry Cc1nc(NCc2ccccc2)sc1-c1ccnc(Nc2ccc(N3CCOCC3)cc2)n1 and write its reported melting point. 180 to 183 °C

###

Recorded Metric: melting point

{"Compound": "CCSc1c(C(F)(F)F)nn(-c2c(Cl)cc(C(F)(F)F)cc2Cl)c1N", "Measurement": "116 °C"}

Read the entry Cc1n[nH]c(-c2ccccc2)c1-c1ccncc1 and write its reported melting point. 212 to 214 °C

Read the entry CSc1ccc2ccc3c(SC)cc(SC)c4ccc1c2c34 and write its reported melting point. 235 to 240 °C

Read the entry COc1ccc2[nH]c(S(=O)Cc3nccc(N(C)C)c3F)nc2c1 (stereo not given) and write its reported melting point. 145 to 147 °C

Read the entry O=C(Cc1ccc([N+](=O)[O-])cc1)c1c(O)c2cccnc2n(-c2ccccc2)c1=O and write its reported melting point. 223 to 227 °C

Read the entry CC[C@@]1(CC(=O)NCc2ccccc2)CCCN2CCc3c([nH]c4ccccc34)[C@@H]21 and write its reported melting point. 179 to 180 °C

Read the entry COC(=O)CCc1cc2cc(Cl)ccc2n1S(=O)(=O)c1ccc(OC)cc1 and write its reported melting point. 98 to 99 °C

Read the entry COc1cn(-c2cccc(C(F)(F)F)c2)nc(C(=O)N(C)OC)c1=O and write its reported melting point. 170 to 171 °C

Read the entry O=C(N[C@H](Cc1ccccc1)C(=O)O)OCc1cc2cc(-c3ccccc3)ccc2[nH]1 and write its reported melting point. 168 to 174 °C

Read the entry Cc1cc(Oc2cccc(C(F)(F)F)c2)nn1C(=O)Nc1ccc(C(F)(F)F)cc1 and write its reported melting point. 82 to 84 °C
